Attribution: the supplement of paper PMC9170038

# Test system: MS2 coat protein
# assay-text: apparent KD of MS2 coat protein; designed switch direction (-1 OFF switch, 1 ON switch): 1; higher = weaker reporter binding
# condition-parameters: Eterna round: R95; input ligand: FMN 200 uM
readout-label: apparent KD of MS2 coat protein (nM)
Reply with just the number (in nM).

Input: Tell us which apparent KD of MS2 coat protein value is on record for AUAAGGCAAGCUUUUUUCUCGUAGUGUAAACAUGAGGAUCACCCAUGUGCCCACCCUGGAUCUUUGGAUCCCAGAAC [Sobeedbeon] (puzzle: Sensor for hsa-mir-208a)
Output: 23

Input: Tell us which apparent KD of MS2 coat protein value is on record for GGAGCCGGCACUGAGGAUAUUCAUAUUUAAACAUGAGGAUCACCCAUGUAGGCCAGAAGGCCUUGGGAGAAGGCAGGUCGGCUCG [salish99_ss2_r3_076] (puzzle: Same State 2)
Output: 26

Input: Tell us which apparent KD of MS2 coat protein value is on record for UUUAGUUGCGGGCAGGAUAUGUAUUAAUAUACAUGAGGAUCACCCAUGUGAGAUCGAAUAGAUCUACAGAAGGGCCAAUCGCGAC [Laonerce - 25] (puzzle: Same State 2)
Output: 19.8

Input: Tell us which apparent KD of MS2 coat protein value is on record for AUUUAACAAGCUUUUUGCUCGUCUUAUAAACAUGAGGAUCACCCAUGUAAUAGCGUGAGAGUAAAUUAUUAAAUAAU [JMF 91] (puzzle: Sensor for hsa-mir-208a)
Output: 13

Input: Tell us which apparent KD of MS2 coat protein value is on record for CUAUCUACAGGUUGCAGUGCUCGUCUUAUACAUGAGGAUCACCCAUGUUAUAGCCCGGUGCUUGCGCUGGGCUGAUU [JL ViennaUCT Tearor mod 2] (puzzle: Sensor for hsa-mir-208a)
Output: 36.4

Input: Tell us which apparent KD of MS2 coat protein value is on record for UUGCAGUCAGGUGAGGAUAUCAUGAAUUUAACAUGAGGAUCACCCAUGUGCUGCCUUGCAGCAUAUGAGAAGGCACCUGGCUGCU [JL-ss2-3.02 Brourd Mod] (puzzle: Same State 2)
Output: 106

Input: Tell us which apparent KD of MS2 coat protein value is on record for AGAGAACAUGAGGAUCACCCAUGUGGGAGAGGCAUAGGAUAUAGAGGAGAGAGCGAGGAACUAGAAGGAUGAUGGA [JR_SS1_Sub080] (puzzle: Same State 1)
Output: 47.3

Input: Tell us which apparent KD of MS2 coat protein value is on record for GGUCCAGCCUGAGCUGGACAAAAGCAUGUACAUGAGGAUCACCCAUGUCAUGUACAAGCUUUUUGCUCGUCUUAAUU [Mat - hsa-mir-208a - 87] (puzzle: Sensor for hsa-mir-208a)
Output: 514

Input: Tell us which apparent KD of MS2 coat protein value is on record for AAGUUAAGCUUUUUGUUCUGCCUAUUCUGACAUGAGGAUCACCCAUGUGGUCGAACGACUACGUGUGUAGUUGAGAU [JR_SHM208A_Sub030] (puzzle: Sensor for hsa-mir-208a)
Output: 174

Input: Tell us which apparent KD of MS2 coat protein value is on record for AAACUACAUGAGGAUCACCCAUGUGAAAACCGCAUAGGAUAUCCGCAGCAAUGAGCUGACGGAGAAGGGUGACCGG [Riater] (puzzle: Same State 1)
Output: 175

Input: Tell us which apparent KD of MS2 coat protein value is on record for CAGUGCUGUCGAGAGGAUAUGCGGUGAUGGACAUGAGGAUCACCCAUGUUAGCGACAGCGUUACGGCAGAAGGCUCUACCCACUG [Soteed Omei mod 47] (puzzle: Same State 2)
Output: 62.5

Input: Tell us which apparent KD of MS2 coat protein value is on record for UGUAAACAUGAGGAUCACCCAUGUUUUUUCAUGGGAGGAUAUCUGAGUUAAGUAUAUUAAGGAGAAGGCCUAUUGU [× ×•×ª×• ×ž×“×™× ×” × ×—×ª-02] (puzzle: Same State 1)
Output: 83.8

Input: Tell us which apparent KD of MS2 coat protein value is on record for AUAAAACAUGAGGAUCACCCAUGUCAACAAAGUCGAGGAUAUGGGCAAAUAAAAUAAGAACCAGAAGGCGAAUUAU [salish99_ss1_r3_036] (puzzle: Same State 1)
Output: 31.6

Input: Tell us which apparent KD of MS2 coat protein value is on record for AUAAAACAUGAGGAUCACCCAUGUCAACAAUGUCGAGGAUAUGGGCAAAUAAAAUAAGAACCAGAAGGCGAAUAAU [salish99_ss1_r3_039] (puzzle: Same State 1)
Output: 43.2

Input: Tell us which apparent KD of MS2 coat protein value is on record for AACAAUCUAUCUGAGGAUAUCAUGUAAUAAACAUGAGGAUCACCCAUGUGCAGGAAAACUGCAUAUGAGAAGGCAGAUAGAUUGA [salish99_ss2_r3_030] (puzzle: Same State 2)
Output: 182

Input: Tell us which apparent KD of MS2 coat protein value is on record for AACAAUCUAUCUGAGGAUAUCAUGAAAUAAACAUGAGGAUCACCCAUGUGUAGGAAAACUGCAUAUGAGAAGGCAGAUAGAUUGA [salish99_ss2_r3_036] (puzzle: Same State 2)
Output: 31.9

Input: Tell us which apparent KD of MS2 coat protein value is on record for GGAGAACAUGAGGAUCACCCAUGUGAGAGGGAUGUAGGAUAUGUGAGGAGUAAAGGAGGGACAGAAGGACAGAGAU [JR_SS!_Sub068] (puzzle: Same State 1)
Output: 37.4

Input: Tell us which apparent KD of MS2 coat protein value is on record for GGUCCAGCCUGAGCUGGACAAAGGCAUGUACAUGAGGAUCACCCAUGUCAUGUACAAGCUUUUUGCUCGUCUUAAAA [JL mod - D87 - 3] (puzzle: Sensor for hsa-mir-208a)
Output: 168

Input: Tell us which apparent KD of MS2 coat protein value is on record for UCUUGGUUUUUGCUCGUUUUUUGUGUUGAACAUGAGGAUCACCCAUGUAUUGUACAAUCCAGUUUAAUAAUGGUCCA [Mod of one of JR's submissions 2] (puzzle: Sensor for hsa-mir-208a)
Output: 55

Input: Tell us which apparent KD of MS2 coat protein value is on record for AACUAUCUAUCUCAGGAUAUCAUGUCAAAGACAUGAGGAUCACCCAUGUACCAGGAAACUGGUUAUGAGAAGGGAGAUAGAUAGG [Mat - Same State 2 - Mod - D42] (puzzle: Same State 2)
Output: 193
